- Test system: L5178Y
- assay explanation: Cytotoxicity against mouse L5178Y cells by MTT assay
- Format: functional, cell-based
As shown below, each of these compounds has a reported EC50 value.
Give just the numeric value; µg/mL need not be written.

Before answering, review these 2 worked examples.
• CC1=C(CC/C(C)=C/CC[C@@]2(C)CC[C@@H]([C@H](C)C(=O)O)OO2)C(C)(C)CCC1 [EPIMUQUBILIN A] = 0.28
• COC(=O)[C@@H](C)[C@@H]1CC[C@](C)(CCC(=O)C(C)(C)CCCC(C)=O)OO1 [DIACARPEROXIDE B] = 10

Here is another compound to look at.
Input line: Need EC50 of COC(=O)[C@H](C)[C@H]1CC[C@@](C)(CCC2=C(C)C(=O)C[C@@H]3C(C)(C)CCC[C@@]23C)OO1 [DIACARPEROXIDE G] , thanks.
Output line: 2
